src = paper PMC6151508

Can you tell me melting point for the items I'm about to list?

These recorded examples may help you get a feel for the data.
| COMPOUND | melting point |
| --- | --- |
| O=C(C=C1NCC2CCCCN2C1=O)c1ccco1 (stereo not drawn) | 152 to 154 °C |
| CC(=O)Nc1cccc(C(=O)C=C2NCC3c4ccccc4CCN3C2=O)c1 (stereo not drawn) | 247 to 249 °C |
| O=C(C=C1NCC2CCCCN2C1=O)c1cccc(Cl)c1 (stereo not drawn) | 157 to 159 °C |

Provide reported melting point for each item, in the same order as listed.
1. O=C(C=C1NCC2c3ccccc3CCN2C1=O)c1ccc(N2CCOCC2)cc1 (stereo not drawn)
2. CC(=O)Nc1ccc(C(=O)C=C2NCC3c4ccccc4CCN3C2=O)cc1 (stereo not drawn)
3. O=C(C=C1NCC2c3ccccc3CCN2C1=O)C1CC1 (stereo not drawn)
4. O=C(C=C1NCC2CCCCN2C1=O)c1ccc(-c2ccccc2)cc1 (stereo not drawn)
5. Nc1ccc(C(=O)C=C2NCC3c4ccccc4CCN3C2=O)cc1 (stereo not drawn)
6. Nc1cccc(C(=O)C=C2NCC3c4ccccc4CCN3C2=O)c1 (stereo not drawn)

1: 235 to 237 °C; 2: 279 to 281 °C; 3: 173 to 175 °C; 4: 197 to 199 °C; 5: 238 to 240 °C; 6: 206 to 208 °C
